B1: Pistol ribozyme (parent)
chain: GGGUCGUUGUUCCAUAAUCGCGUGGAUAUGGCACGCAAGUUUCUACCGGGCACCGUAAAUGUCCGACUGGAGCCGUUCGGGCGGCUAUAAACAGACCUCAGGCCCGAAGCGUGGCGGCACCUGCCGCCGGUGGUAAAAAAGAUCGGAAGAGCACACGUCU

variants of: B1; assay: aptazyme ON/OFF ratio, guanine; higher = stronger switching; co-transcriptional cleavage with and without guanine
Below, each of the variants is paired with its reported aptazyme ON/OFF ratio value.

{"columns": ["alteration", "aptazyme ON/OFF ratio"],
 "data": [
  ["U7A U8C G9C U11C", 1],
  ["U7A U8G U10G U11G", 1.44],
  ["U7C U8A G9U U10C U11A C12U C13G", 1.09],
  ["U7A U8A U10A C12A C13A", 1.23],
  ["U7G U8A U11A C12A", 1.25],
  ["U7C U8A G9C U10A U11G C12G C13G", 1.15],
  ["U7C U8G U10A C12G", 1.18],
  ["U7A U8G G9A U10G U11C C12G C13A", 1.4],
  ["U7G U8A G9A U10A U11A C12G", 1.26],
  ["U7G U8G G9U U10G U11C C12A", 1.13],
  ["U7A U8A G9A U10G U11A C12A C13G", 1.18],
  ["U7G U8A G9U U10A U11A C12G C13A", 1.05],
  ["U7G U8C G9U U10A U11C C12A C13U", 1.59],
  ["U7C G9A U10A U11G C12A", 1.02],
  ["U7G U8A G9A U10A U11G", 1.28],
  ["U7C U8A U10C U11C C12G C13G", 1.12],
  ["U8G G9U U11C C12A C13G", 1.08],
  ["U8G G9U U10C U11C", 1.05],
  ["U7A U11A C13A", 1.13],
  ["U8A G9C U10C U11A C12U C13G", 1.06],
  ["U7G U8G G9A U11A C12U C13G", 1.12],
  ["U7C U8C U11C C12G", 1.16]
]}
